Target: pEGFR, PC-9 cells (d746-750 EGFR) (Homo sapiens, UniProt P00533, DEL746-750)
Construct: pEGFR (Tyr1068) TR-FRET
Sequence (P00533 with tags, fused parts or gaps DEL746-750): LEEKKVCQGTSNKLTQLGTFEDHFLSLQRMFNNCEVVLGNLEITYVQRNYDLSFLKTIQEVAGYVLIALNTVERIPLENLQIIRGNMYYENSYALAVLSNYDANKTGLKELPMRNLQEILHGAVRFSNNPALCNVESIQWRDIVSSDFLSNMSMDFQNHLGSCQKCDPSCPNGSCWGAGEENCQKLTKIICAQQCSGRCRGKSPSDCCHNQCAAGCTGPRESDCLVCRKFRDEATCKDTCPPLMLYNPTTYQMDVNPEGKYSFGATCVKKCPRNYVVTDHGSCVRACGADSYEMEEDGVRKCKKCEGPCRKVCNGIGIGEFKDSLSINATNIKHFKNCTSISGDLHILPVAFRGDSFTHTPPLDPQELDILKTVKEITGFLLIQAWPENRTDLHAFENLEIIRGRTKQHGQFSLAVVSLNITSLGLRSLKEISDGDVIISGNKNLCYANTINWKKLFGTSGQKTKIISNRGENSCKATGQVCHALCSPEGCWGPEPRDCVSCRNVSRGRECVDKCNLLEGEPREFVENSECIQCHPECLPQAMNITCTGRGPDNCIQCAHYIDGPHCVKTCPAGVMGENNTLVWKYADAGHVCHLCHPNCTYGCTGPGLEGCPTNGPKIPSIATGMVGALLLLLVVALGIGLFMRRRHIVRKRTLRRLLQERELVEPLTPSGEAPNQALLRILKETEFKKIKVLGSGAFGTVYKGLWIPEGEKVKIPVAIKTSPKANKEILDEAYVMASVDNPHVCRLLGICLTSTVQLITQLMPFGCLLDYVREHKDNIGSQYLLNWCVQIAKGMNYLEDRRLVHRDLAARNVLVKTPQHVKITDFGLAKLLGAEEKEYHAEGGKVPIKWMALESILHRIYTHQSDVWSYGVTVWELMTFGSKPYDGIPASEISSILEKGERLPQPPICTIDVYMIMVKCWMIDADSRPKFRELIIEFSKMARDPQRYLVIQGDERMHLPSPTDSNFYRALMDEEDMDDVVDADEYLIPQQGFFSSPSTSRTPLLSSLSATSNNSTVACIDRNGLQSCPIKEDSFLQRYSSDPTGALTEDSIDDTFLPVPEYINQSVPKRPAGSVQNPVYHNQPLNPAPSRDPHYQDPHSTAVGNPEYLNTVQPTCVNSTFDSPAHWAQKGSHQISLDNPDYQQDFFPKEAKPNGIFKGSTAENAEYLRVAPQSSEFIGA
Test: Cellular EGFR phosphorylation assay (LANCE Ultra TR-FRET) in PC-9 cells
Type: cell-based
Settings: 4 hours at 37° C., read-out: PC-9 pEGFR IC50
Metric: IC50 (nM)

Previously resolved entries follow.
// recorded IC50 for CCOc1nn(CCO)c2c1/C=C/c1n[nH]c3cnc(cc13)-c1c(C)nn(C)c1O[C@@H](C)CN(C)C2 [Ex. 44] : 1.01

Memo: CCOc1nn(CCO)c2c1/C=C/c1n[nH]c3cnc(cc13)-c1c(C)nn(C)c1O[C@@H](C)CN(CC)C2 [Ex. 15] , reported IC50: 1.05

A. CCc1nn(CCO)c2c1/C=C/c1n[nH]c3cnc(cc13)-c1c(C)nn(C)c1O[C@@H](C)CN(CC)C2 [Ex. 62]
B. CCOc1nn([C@H](C)CO)c2c1/C=C/c1n[nH]c3c(C)nc(cc13)-c1c(C)nn(C)c1O[C@@H](C)CN(C)C2 [Ex. 95]
Q: Compare A and B and name the one whose reported IC50 is smaller. Kindly give the label for the entry you pick.
Ans: A
